pIC50: −log10 of the molar value.
Provide the reported pIC50 of each item.

Bench note, WDR5 (Homo sapiens): CNc1nccn1Cc1cc2c(c(-c3cc(CO)cnc3Cl)c1)CCN(Cc1ccc(F)c(C#N)c1)C2=O [Example 69] , pIC50 reads 6.00 to 8.00

Bench note, WDR5 (Homo sapiens): CCOc1cc([C@H](C)N2CCc3c(CN4CC[C@@H](F)C4)cc(Cn4ccnc4NC)cc3C2=O)ncc1C#N [Example 11] , pIC50 reads > 8.00

Bench note, WDR5 (Homo sapiens): CCOc1cc([C@H](C)N2CCc3c(CN(C)C)cc(Cn4ccnc4NC)cc3C2=O)ncc1F (single isomer, unassigned) [Example 19] , pIC50 reads 6.00 to 8.00

Bench note, WDR5 (Homo sapiens): CCOc1cc([C@H](C)N2CCc3c(cc(Cn4ccnc4C)cc3-c3cn(C)c(=O)cc3C(F)F)C2=O)ncc1C#N [Example 285] , pIC50 reads > 8.00

// data source = patent US20220289732A1
